Origin of measurements: patent US11066392B2

Target of assay: indoleamine 2,3-dioxygenase (IDO) (Homo sapiens)
Experimental protocol: HeLa cell-based indoleamine 2,3-dioxygenase (IDO) assay (kynurenine production, IFNγ-stimulated)
Settings: HeLa cells; potency class; read-out: Patent Potency Hela IC50 A < 10 nM, B > 10 nM, C > 100 nM
pIC50: −log10 of the molar value.
Measurement kind: pIC50

See these solved cases before continuing.
1) CC[C@@H](NC(=O)c1ccc(OC)nc1)[C@H]1CC[C@@H](c2ccn(C)c(=O)c2)CC1 (single isomer, unassigned) [Example 31a] :: < 7.00
2) CCC(NC(=O)c1ccc(OC)nc1)C1CCC(c2cccc(OC(F)F)n2)CC1 (single isomer, unassigned) [Example 48d] :: < 7.00
3) CCC(NC(=O)c1ccc(OC)nc1)C1CCC(c2ccnc3ccc(C(F)(F)F)cc23)CC1 (single isomer, unassigned) [Example 11b] :: > 8.00
4) [2H]C([2H])([2H])Oc1ccc(C(=O)NC(CC)C2CCC(c3ccnc(OC)c3C(F)F)CC2)cn1 (single isomer, unassigned) [Example 66-1] :: < 7.00
5) CCC(NC(=O)c1ccc(OC)nc1)C1CCC(c2ccnc(F)c2C)CC1 (single isomer, unassigned) [Example 68-2] :: < 7.00
6) CCOC[C@@H](NC(=O)c1ccc(OC)nc1)[C@H]1CC[C@@H](c2ccnc3ccc(C(F)(F)F)cc32)CC1 (single isomer, unassigned) [Example 13b] :: > 8.00
7) C[C@@H](NC(=O)c1ccc(Cl)nc1)[C@H]1CC[C@@H](c2ccnc3ccc(F)cc32)CC1 [Example 5] :: > 8.00
8) CCC(NC(=O)c1ccnc(N2CCOCC2)c1)C1CCC(c2ccnc(OC)c2C(F)F)CC1 (single isomer, unassigned) [Example 26a] :: < 7.00
9) CC[C@@H](NC(=O)c1ccc(OC)nc1)[C@H]1CC[C@@H](c2cnc3ccccc3c2)CC1 (single isomer, unassigned) [Example 20b] :: < 7.00
10) CCC(NC(=O)c1ccc(OC)nc1)C1CCC(c2ccnc(F)c2C)CC1 (single isomer, unassigned) [Example 27b] :: > 8.00

Query: Which pIC50 is listed for CC[C@@H](NC(=O)c1ccc(OC)nc1)[C@H]1CC[C@@H](c2ccnc3c(F)cccc32)CC1 (relative stereo) [Example 59b] ?
Result: > 8.00

Query: Follow-up entry: CCC(NC(=O)c1ccc(OC)nc1)C1CCC(c2cccc(C)n2)CC1 (single isomer, unassigned) [Example 46c]
Result: < 7.00

Query: Quick one: [2H]C([2H])([2H])Oc1ccc(C(=O)NC(CC)C2CCC(c3ccnc(OC)c3C(F)F)CC2)cn1 (single isomer, unassigned) [Example 66-2]
Result: > 8.00

----------
Target of assay: indoleamine 2,3-dioxygenase (IDO) (Homo sapiens, UniProt P14902)
Sequence (P14902 whole entry): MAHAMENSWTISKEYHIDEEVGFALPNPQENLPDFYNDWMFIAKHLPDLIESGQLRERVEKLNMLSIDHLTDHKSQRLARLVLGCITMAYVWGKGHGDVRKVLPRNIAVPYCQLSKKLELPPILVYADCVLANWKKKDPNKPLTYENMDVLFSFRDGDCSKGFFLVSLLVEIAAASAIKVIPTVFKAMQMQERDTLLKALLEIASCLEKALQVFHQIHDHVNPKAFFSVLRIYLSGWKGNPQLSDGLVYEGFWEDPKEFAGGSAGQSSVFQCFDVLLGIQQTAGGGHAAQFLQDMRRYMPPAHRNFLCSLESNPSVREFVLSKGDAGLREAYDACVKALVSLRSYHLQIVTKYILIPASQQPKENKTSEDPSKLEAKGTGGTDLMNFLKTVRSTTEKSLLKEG
Experimental protocol: HeLa cell-based indoleamine 2,3-dioxygenase (IDO) assay (kynurenine production, IFNγ-stimulated)
Settings: HeLa cells, IFNγ 25 ng/mL, 48 hour incubation; read-out: IDO Hela IC50
pIC50: −log10 of the molar value.
Measurement kind: pIC50

Known pIC50 results, listed for orientation:
1. C[C@@H](NC(=O)c1cncnc1)[C@H]1CC[C@@H](c2ccnc3ccc(F)cc32)CC1 :: 7.52
2. COCC(NC(=O)c1ccc(OC)nc1)C1CCC(c2ccnc3ccc(F)cc23)CC1 (stereo not shown) [Example 14b] :: 8.00
3. COC[C@H](NC(=O)c1ccc(OC)nc1)[C@H]1CC[C@@H](c2ccnc(OC)c2C(F)F)CC1 (single isomer, unassigned) [Example 51d] :: 7.00
4. COC[C@H](NC(=O)c1ccc(OC)nc1)[C@H]1CC[C@@H](c2ccnc(OC)c2C(F)F)CC1 (single isomer, unassigned) [Example 51b] :: 6.41
5. CC[C@@H](NC(=O)c1ccc(OC)nc1)[C@H]1CC[C@@H](c2ccnc3ncccc32)CC1 (single isomer, unassigned) [Example 53b] :: 6.17

I: C[C@@H](NC(=O)c1cnccn1)[C@H]1CC[C@@H](c2ccnc3ccc(F)cc32)CC1
II: COC[C@H](NC(=O)c1ccc(OC)nc1)[C@H]1CC[C@@H](c2ccnc(OC)c2C(F)F)CC1 (single isomer, unassigned) [Example 51c]
Query: So which one has the bigger pIC50 here, I or II ? Give the label under which the chosen entry appears.
Result: I

A: CC[C@@H](NC(=O)c1ccc(OC)nc1)[C@H]1CC[C@@H](c2ccn(C)c(=O)c2)CC1 (single isomer, unassigned) [Example 31c]
B: CCC(NC(=O)c1ccc(OC)nc1)C1CCC(c2ccnc3c(F)cc(F)cc23)CC1 (single isomer, unassigned) [Example 57a]
C: CC[C@@H](NC(=O)c1cnc(OC)nc1)[C@H]1CC[C@@H](c2ccnc(OC)c2F)CC1 (single isomer, unassigned) [Example 21d]
D: CC[C@H](NC(=O)c1cnc(C)nc1)[C@H]1CC[C@H](c2ccnc3c(F)cccc32)CC1 (single isomer, unassigned) [Example 61d]
E: CC[C@@H](NC(=O)c1ccc(OC)nc1)[C@H]1CC[C@@H](c2ccnc3ncccc32)CC1 (single isomer, unassigned) [Example 53a]
Query: Your job: order these 5 records by pIC50, ascending. Answer format: list of labels, ordered as asked.
Result: B, C, A, D, E
(B: 6.08, C: 6.42, A: 6.72, D: 7.70, E: 8.00)
